Data provenance: ChEMBL document CHEMBL5352453

procedureDetails: Metabolic stability in CD1 mouse liver microsomes assessed as intrinsic clearance measured upto 60 mins by LC-MS/MS analysis
Type: ADME
conditionDescription: read-out: CLH
I'd appreciate it if you could supply microsomal CLint values for the items below.
Numbers only, in µL/min/mg.

- compoundSmiles: "CCCn1c(NC(=O)c2cccnc2)nc2ccc(C#N)cc21"
  microsomal CLint / µL/min/mg: 200
- compoundSmiles: "O=C(Nc1nc2ccc(F)cc2n1CC(F)(F)F)c1cccnc1"
  microsomal CLint / µL/min/mg: 98
- compoundSmiles: "CC(C)(C)Cn1c(NC(=O)c2cc(C(F)(F)F)n[nH]2)nc2cc(C#N)cnc21"
  microsomal CLint / µL/min/mg: 23
- compoundSmiles: "CCCn1c(NC(=O)c2cccnc2)nc2cc(F)c(F)cc21"
  microsomal CLint / µL/min/mg: 446

Next, consider the following compound.
Enquiry: Requested read-out: microsomal CLint. Entry: O=C(Nc1nc2cc(F)ccc2n1C1CCOCC1)c1ccc(C(F)(F)F)nc1
Return: 23

###

Tested on: Trypanosoma cruzi
procedureDetails: Antitrypanosomal activity against Trypanosoma cruzi Tulahuen CL2 amastigotes expressing beta galactosidase infected in human MRC5 cells assessed as reduction in parasite burden using chlorophenol red beta-D-galactopyranoside as substrate and measured after 7 days by spectrophotometric analysis
Assay type: functional, organism-based
conditionDescription: Tulahuen CL2, MRC5, 168 h
parameterMeasured: pIC50
Numbers only, as −log10 of the molar value.

- compoundSmiles: "CC(C)(C)Cn1c(NC(=O)c2cccnc2)nc2ccc(C#N)cc21"
  reportedResult: 5.06
- compoundSmiles: "O=C(Nc1nc2cc(F)ccc2n1C1CCOCC1)c1cccnc1"
  reportedResult: 5.07
- compoundSmiles: "CCCn1c(NC(=O)c2cccnc2)nc2cc(F)c(F)cc21"
  reportedResult: 5.68
- compoundSmiles: "N#Cc1ccc2nc(NC(=O)c3ccn(C4CC4)n3)n(CC(F)(F)F)c2c1"
  reportedResult: 5.37
- compoundSmiles: "CCCn1c(NC(=O)Cc2cc(F)ccc2F)nc2ccccc21"
  reportedResult: 5.66
- compoundSmiles: "Cn1nc(C(F)(F)F)cc1C(=O)Nc1nc2ccc(C#N)cc2n1CC(F)(F)F"
  reportedResult: 6.64
- compoundSmiles: "Cn1nccc1C(=O)Nc1nc2ccc(C#N)cc2n1CC(F)(F)F"
  reportedResult: 5.80
- compoundSmiles: "CCCn1c(NC(=O)Cc2ccc(F)cc2)nc2ccccc21"
  reportedResult: 5.68
- compoundSmiles: "CCCn1c(NC(=O)c2cccnc2)nc2cccnc21"
  reportedResult: 5.36
- compoundSmiles: "CCCn1c(NC(=O)Cc2ccc(Cl)cc2)nc2ccc(C#N)cc21"
  reportedResult: 4.62

Hello, I would appreciate it if you could give pIC50 for each entry below.
1. Cc1nn[nH]c1C(=O)Nc1nc2ccc(C#N)cc2n1CC(F)(F)F
2. Cn1nccc1C(=O)Nc1nc2cncnc2n1CC(F)(F)F
3. CCCn1c(NC(=O)c2cccnc2)nc2cc(F)ccc21

Return:
1: 4.19; 2: 5.09; 3: 5.09

Hello, I would appreciate it if you could give pIC50 for each entry below.
1. N#Cc1ccc2nc(NC(=O)c3cnc(C(F)(F)F)nc3)n(CC(F)(F)F)c2c1
2. N#Cc1ccc2nc(NC(=O)c3ccnn3C3CC3)n(CC(F)(F)F)c2c1
3. COc1ccc(C(=O)Nc2nc3ccc(C#N)cc3n2CC(F)(F)F)cn1
4. Cn1nccc1C(=O)Nc1nc2ccc(C#N)cc2n1CCF
5. N#Cc1ccc2nc(NC(=O)c3cc(C(F)(F)F)nn3CC(=O)O)n(CC(F)(F)F)c2c1
6. CCCn1c(NC(=O)c2cccc(C(F)(F)F)n2)nc2cccnc21
7. CCCn1c(NC(=O)Cc2ccc(Cl)cc2)nc2cc(F)ccc21

Return:
1: 6.62; 2: 6.00; 3: 5.64; 4: 5.08; 5: 4.19; 6: 5.62; 7: 6.04

Hello, I would appreciate it if you could give pIC50 for each entry below.
1. O=C(Nc1nc2cc(F)ccc2n1C1CCOCC1)c1ccc(C(F)(F)F)nc1
2. O=C(Nc1nc2cncnc2n1CC(F)(F)F)c1ccc(C(F)(F)F)nc1

Return:
1: 4.46; 2: 6.29
